The measurements presented in this section are drawn from ChEMBL document CHEMBL1944562.

- Test system: Escherichia coli
- measurement_notes: Antibacterial activity against Escherichia coli ATCC 25922 at MIC after 3 to 4 days
- Assay type: functional
metric: diameter of the inhibition zone (DIZ)

Worked examples follow.
{"molecule": "Nc1nc(COC(=O)c2ccc(Br)cc2)cs1", "target": "Escherichia coli", "diameter of the inhibition zone (DIZ)": "<10 mm"}
{"molecule": "Nc1nc(COC(=O)c2ccccc2)cs1", "target": "Escherichia coli", "diameter of the inhibition zone (DIZ)": "<10 mm"}
{"molecule": "N#Cc1ccc(C(=O)OCc2csc(N)n2)cn1", "target": "Escherichia coli", "diameter of the inhibition zone (DIZ)": "16 mm"}

Parameters: items (list). Returns: diameter of the inhibition zone (DIZ) for each item.
1. Nc1nc(COC(=O)c2ccccc2[N+](=O)[O-])cs1
2. N#Cc1cccc(C(=O)OCc2csc(N)n2)n1
3. Nc1nc(COC(=O)Cc2ccccc2OC(F)(F)F)cs1
4. Nc1nc(COC(=O)Cc2cccc(C(F)(F)F)c2)cs1
5. N#CCCc1cccc(C(=O)OCc2csc(N)n2)c1
6. Nc1nc(COC(=O)c2c(F)cc(F)cc2F)cs1

Reply:
1: 11 mm; 2: 11 mm; 3: 11 mm; 4: 16 mm; 5: 16 mm; 6: 16 mm
